Recorded values, source ChEMBL document CHEMBL1140038.

Below, each entry is listed with its recorded logP.
Assay: Partition coefficient, log P of the compound
Type: physicochemical
Settings: octanol/water
Could you keep your reply to the number by itself?

LINE NOTATION | logP
[18F]CCOCCOCCOc1ccc(C#Cc2ccc3c(c2)CCN3)cc1 | 2.95

Now for the compound whose logP we want.
The compound [18F]CCOCCOCCOc1ccc(C#Cc2ccc3[nH]ccc3c2)cc1 showed logP equal to 2.56
